tested on: TK-10 renal; experiment: NCI-60 one-dose screen, 48 h; conditions: 10 µM unless noted
The panel holds about 83,000 compounds, 20% with a hit somewhere; the sample as a whole holds those more often. Active and inactive are the calls of the source. The calls were made as follows: active = growth percent below 10; inactive = the rest.
Outcome codes: true (1) (active), false (0) (inactive)

                                   compound  assigned_category
0  CCCCCn1ncc(-c2c(O)c(O)cc3c(O)c(-c4c(C)cc5c(-c6cnn(CCCCC)n6)c(O)c(O)cc5c4O)c(C)cc23)n1          false (0)
1  CC[C@@]1(O)C(=O)OCc2c1cc1n(c2=O)Cc2c-1nc1ccccc1c2/C=N/OC(C)(C)C           true (1)
2     Nc1ccc(S(=O)(=O)Nc2ccnn2-c2ccccc2)cc1          false (0)
3  CC1(C)Cc2c(Br)c(Br)c(Br)c(OCC(O)CN3CCN(c4ccccn4)CC3)c2O1 (stereo unspecified)          false (0)
4  N#Cc1c(N)nc2c(c1N)C(c1ccc(Cl)cc1)C1=C(CCCC1=O)N2c1sc2c(c1C#N)CCCC2 (stereo unspecified)          false (0)
5  COC(OC)C1(c2ccccc2)NC(=O)NC1=O (stereo unspecified)          false (0)
